Test system: NCI/ADR-RES ovarian
Experiment: NCI tumour cell line growth inhibition, 48 h
So I've got a bunch of compounds here, and I need their TGI values.

Some solved entries appear below for comparison.
{"COMPOUND": "CC(C)(C)OC(=O)NCCC1CNc2ccccc21 (stereo not drawn)", "ASSAY SYSTEM": "NCI/ADR-RES ovarian", "TGI": "> 100 µM"}
{"COMPOUND": "O=C(O)/C=C/c1ccc(OS(=O)(=O)O)cc1", "ASSAY SYSTEM": "NCI/ADR-RES ovarian", "TGI": "> 100 µM"}

Please examine the following record next.
Find the recorded TGI belonging to `O=c1cc(-c2ccccc2)oc2c1ccc1ccccc12` and report it.
> 100 µM

----------
Test system: SF-539 CNS
Assay: NCI tumour cell line growth inhibition, 48 h
So I've got a bunch of compounds here, and I need their GI50 values.

{"COMPOUND": "COc1ccc(-c2cc(-c3ccc(OC)cc3)nc(NCCCNc3ccnc4cc(Cl)ccc34)n2)cc1", "ASSAY SYSTEM": "SF-539 CNS", "GI50": "7.16 µM"}

Dear colleague, could you please provide GI50 for the compounds listed below?
1. CCc1cccc(NC(=O)Nc2ccc(Oc3ccc4nc(NC(=O)OC)[nH]c4c3)cc2)c1
2. CC(C)CCCCCCCCCCCCC(=O)NCC(=O)NC1C(C)OC(Nc2ncnc3nc[nH]c23)C(O)C1O (centres undefined)
3. CCOC(=O)Nc1ccc2c(c1)C(=O)N(CC)c1ccccc1O2
4. CC1(C)CCc2c(c(N=Nc3ccccc3F)c3ccccc3c2O)O1
5. CC1=C2[C@@H](CC1)[C@]1(C)O[C@@](C(C)C)(C[C@H]1OC(=O)CO)[C@H]2OC(=O)CCCc1ccccc1
6. CC(C)=Cc1cccc2[nH]c(O)c(N=Nc3ccc(S(N)(=O)=O)cc3)c12

1: 5.08 µM; 2: 0.011 µM; 3: 0.0942 µM; 4: 21.2 µM; 5: 14.2 µM; 6: 2.72 µM

Dear colleague, could you please provide GI50 for the compounds listed below?
1. COc1ccc(C2CC(c3ccc(OC)cc3O)=NN2c2ccc(S(N)(=O)=O)cc2)cc1 (centres undefined)
2. C#CCOC(=O)/C=C/C(=O)Oc1ccc2c(C)cc(=O)oc2c1

1. 30.2 µM
2. > 100 µM

----------
System: SF-268 CNS
Experiment: NCI tumour cell line growth inhibition, 48 h
So I've got a bunch of molecules here, and I need their TGI values.

Some solved entries appear below for comparison.
{"MOLECULE": "O=C(CC1(O)C(=O)Nc2ccccc21)c1ccc(Cl)cc1Cl (stereo not given)", "MEASUREMENT": "> 100 µM"}
{"MOLECULE": "CC(C)CCCCCCCCCCCCC(=O)NCC(=O)NC1C(C)OC(Nc2ncnc3nc[nH]c23)C(O)C1O (stereo not given)", "MEASUREMENT": "0.343 µM"}
{"MOLECULE": "O=C1NC(=O)C(C(c2ccc([N+](=O)[O-])cc2)C2C(=O)NC(=O)NC2=O)C(=O)N1", "MEASUREMENT": "> 100 µM"}
{"MOLECULE": "CC(=O)OC12CC[N+]3(C)CCCCC3C1=Nc1ccccc12 (stereo not given)", "MEASUREMENT": "> 100 µM"}

Dear colleague, could you please provide TGI for the molecules listed below?
1. CCCCCCCC(=O)OC[C@H](C[As](=O)(O)O)OC(=O)CCCCCCC
2. CO/C=C(\Br)c1ccc2c(c1)OCO2
3. CC[C@@H]1CSC(/C=C/C2OC3OC(C)(C)OC3C3OC(C)(C)OC23)=N1 (stereo not given in full)
4. CSc1ccc2c(cc1=O)C(NC(=O)c1ccccc1)CCc1cc(O)c(O)c(O)c1-2 (stereo not given)
5. COc1cc2c(/C=C3/C(=O)Nc4ccc(O)cc43)c(Cl)n(Cc3cc(OC)c(OC)c(OC)c3)c2cc1C

1: 15.6 µM; 2: > 100 µM; 3: 18.8 µM; 4: > 100 µM; 5: > 100 µM

Find the recorded TGI belonging to CN(C)c1ccc(C2CC(=O)CC(c3ccc(N(C)C)cc3)C23C(=O)NC(=S)NC3=O)cc1 (stereo not given) and report it.
> 100 µM

----------
Tested on: MALME-3M melanoma
Assay: NCI tumour cell line growth inhibition, 48 h
ENDPOINT NAME: TGI

Some solved entries appear below for comparison.
{"COMPOUND": "CC(=O)OC12CC[N+]3(C)CCCCC3C1=Nc1ccccc12 (stereo unspecified)", "ASSAY SYSTEM": "MALME-3M melanoma", "TGI": "> 100 µM"}
{"COMPOUND": "CN/N=C(\\C(=O)Nc1ccc(C(F)(F)F)cc1[N+](=O)[O-])C(c1cnc2ccc([N+](=O)[O-])cc2n1)[N+](=O)[O-] (stereo unspecified)", "ASSAY SYSTEM": "MALME-3M melanoma", "TGI": "> 100 µM"}
{"COMPOUND": "CC(C)=Cc1cccc2[nH]c(O)c(N=Nc3ccc(S(N)(=O)=O)cc3)c12", "ASSAY SYSTEM": "MALME-3M melanoma", "TGI": "> 25 µM"}

Dear colleague, could you please provide TGI for the compounds listed below?
1. O=C(C=Nc1ccccc1S)c1ccco1
2. O=C(Nc1ccccc1Cl)c1ccc(NC2=C(Cl)C(=O)N(C3CCCCC3)C2=O)cc1
3. O=[N+]([O-])c1cc(I)cc(/C=N/NS(=O)(=O)c2ccc(Cl)cc2)c1O
4. CN(C)CCN(C)C(=O)c1cccc2cccc(C(=O)O)c12

35.1 µM
51.2 µM
48.9 µM
> 100 µM

Dear colleague, could you please provide TGI for the compounds listed below?
1. CN/N=C(\C)C(CN1CCCCC1)C(C1=C(O)c2ccccc2OC1)c1ccccc1 (stereo unspecified)
2. CN(/N=C/c1ccc(Cl)c(Cl)c1)C1=NCCCCN1
3. Cc1ccc(-c2nc(/C=N/Nc3cc(C)nc4ccc(Br)cc34)c(C)o2)cc1
4. CO/C=C(\Br)c1ccc2c(c1)OCO2

["> 100 µM", "32.5 µM", "3.62 µM", "> 100 µM"]

----------
System: SN12C renal
Assay: NCI tumour cell line growth inhibition, 48 h
ENDPOINT NAME: TGI

Some solved entries appear below for comparison.
{"COMPOUND": "CCN(CC)CCCNc1n[n+]([O-])c2ccccc2[n+]1[O-]", "ASSAY SYSTEM": "SN12C renal", "ENDPOINT NAME": "TGI", "MEASUREMENT": "27.9 µM"}
{"COMPOUND": "COc1ccc(C2=NN(C(C)=O)C(c3ccc(Oc4ccnc5cc(Cl)ccc45)c(OC)c3)C2)cc1 (stereo unspecified)", "ASSAY SYSTEM": "SN12C renal", "ENDPOINT NAME": "TGI", "MEASUREMENT": "> 100 µM"}
{"COMPOUND": "O=c1oc2ccc(Cl)cc2c(=O)n1-c1ccc(F)cc1F", "ASSAY SYSTEM": "SN12C renal", "ENDPOINT NAME": "TGI", "MEASUREMENT": "8.78 µM"}
{"COMPOUND": "FC(F)(F)c1nc(SCc2ccc(Cl)cc2)n[nH]1", "ASSAY SYSTEM": "SN12C renal", "ENDPOINT NAME": "TGI", "MEASUREMENT": "> 100 µM"}
{"COMPOUND": "CN1N=C2c3ccccc3OC(c3ccccc3)[C@H]2C1c1ccccc1 (stereo partly specified)", "ASSAY SYSTEM": "SN12C renal", "ENDPOINT NAME": "TGI", "MEASUREMENT": "> 100 µM"}
{"COMPOUND": "CC(C)CCCCCCCCCCCCC(=O)NCC(=O)NC1C(C)OC(Nc2ncnc3nc[nH]c23)C(O)C1O (stereo unspecified)", "ASSAY SYSTEM": "SN12C renal", "ENDPOINT NAME": "TGI", "MEASUREMENT": "0.683 µM"}
{"COMPOUND": "Cn1c2ccccc2c2c3c(c4c5ccccc5n(C5OC(CO)C(O)C(O)C5O)c4c21)C(=O)OC3=O (stereo unspecified)", "ASSAY SYSTEM": "SN12C renal", "ENDPOINT NAME": "TGI", "MEASUREMENT": "> 100 µM"}
{"COMPOUND": "CCOC(=O)[C@@]1(C(C)=O)CC(C)=C(C)C[S@]1=O", "ASSAY SYSTEM": "SN12C renal", "ENDPOINT NAME": "TGI", "MEASUREMENT": "> 100 µM"}

Dear colleague, could you please provide TGI for the compounds listed below?
1. CC[C@@H]1CSC(/C=C/C2OC3OC(C)(C)OC3C3OC(C)(C)OC23)=N1 (stereo partly specified)
2. CC(=O)OC12CC[N+]3(C)CCCCC3C1=Nc1ccccc12 (stereo unspecified)
3. Cc1ccc(N=C2OP(=O)(Nc3ccc(C)cc3)Oc3ccccc32)cc1 (stereo unspecified)

23.9 µM
> 100 µM
> 100 µM
